# System: P. aeruginosa PAO1
# assay_explanation: Antimicrobial susceptibility testing (MIC)
# Type: cell-based, P. aeruginosa PAO1 (ATCC 15692)
# assay_conditions: Pseudomonas aeruginosa, PAO1; A12 (32 μg/mL) (−)
Field: MIC. Provide a value for each of the compounds that follow.
Answers are plain numbers, in µg/mL.

Sample records with MIC:
- compound_structure_string: "COc1c(N2C[C@@H]3CCCN[C@@H]3C2)c(F)cc2c(=O)c(C(=O)O)cn(C3CC3)c12"
  assay_readout: "MIC"
  measured: 0.0312
- compound_structure_string: "CO/N=C(\\C(=O)N[C@@H]1C(=O)N2C(C(=O)O)=C(CSc3nc(=O)c(=O)[nH]n3C)CS[C@H]12)c1csc(N)n1"
  assay_readout: "MIC"
  measured: 8
- compound_structure_string: "CN(C)[C@@H]1C(O)=C(C(N)=O)C(=O)[C@@]2(O)C(O)=C3C(=O)c4c(O)cccc4[C@@](C)(O)[C@H]3C[C@@H]12"
  assay_readout: "MIC"
  measured: 4

Alright, here's another compound for you.
Entry `C[C@H]1COc2c(N3CCN(C)CC3)c(F)cc3c(=O)c(C(=O)O)cn1c23` , MIC reported as 0.0625

---

# assay_explanation: Solubility in aqueous buffers
# Format: physicochemical
# assay_conditions: aqueous buffer, read-out: Solubility in aqueous buffers, concentration above which it strongly worsened
assay_readout: solubility

get_value(item= `O=C(O)CCNc1ccccc1S` , readout=solubility) returns ~500 µM

---

# system_tested: LexAPa S125A (Pseudomonas aeruginosa, UniProt P37452, S125A)
# Construct: Concerning full-length LexAPa ^S125A, a biphasic melting curve was obtained for the pure protein
# Sequence (P37452 2-204 S125A): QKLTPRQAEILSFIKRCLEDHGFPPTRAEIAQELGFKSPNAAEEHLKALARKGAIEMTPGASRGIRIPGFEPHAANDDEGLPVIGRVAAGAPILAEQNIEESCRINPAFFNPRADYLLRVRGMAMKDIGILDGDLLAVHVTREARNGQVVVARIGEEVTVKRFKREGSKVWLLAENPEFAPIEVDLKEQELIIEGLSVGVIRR
# assay_explanation: Isothermal titration calorimetry on LexAPa S125A
assay_readout: pKd
Give bare numbers, as −log10 of the molar value.

Reported pKd ( O=C(O)CCNc1ccccc1S [A12, 3-(2-sulfanylanilino)propanoic acid] ) = 5.13

---

# system_tested: RecAPa (Pseudomonas aeruginosa)
# assay_explanation: Isothermal titration calorimetry on RecAPa
assay_readout: Kd (µM)
One number for each entry, in µM.

Kd reading for `O=C(O)CCNc1ccccc1S` : 18

---

# system_tested: RecAPa*-induced FlAsH-LexAPa CTD autoproteolysis (Pseudomonas aeruginosa, UniProt P37452)
# Construct: 6His-SUMO (N, cleaved yes)
# Sequence (P37452 81-204): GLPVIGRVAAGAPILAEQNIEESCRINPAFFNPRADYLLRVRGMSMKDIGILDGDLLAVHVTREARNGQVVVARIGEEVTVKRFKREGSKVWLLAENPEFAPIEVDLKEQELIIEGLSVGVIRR
# assay_explanation: FP-based RecA*-induced LexA autoproteolysis in vitro assay
# assay_conditions: 1 μM FlAsH-LexAPa CTD, 1 μM RecAPa*, 1 h at 37 °C; read-out: IC50 on RecA*Pa-induced LexAPa autoproteolysis (FP assay)
assay_readout: IC50

# IC50 (compound: `O=C(O)CCNc1ccccc1S` ) is 295 µM
